Listed molecules paired with reported IC50 at 48 h
run description: Cytotoxicity against green monkey Vero cells incubated for 48 hrs by resazurin dye based assay
Type: toxicity, cell-based
setup conditions: African green monkey (Chlorocebus sabaeus)
value type: IC50 at 48 h (µM)

[
  {
    "smiles entry": "C#CCn1cc(/C=N\\N=C/C2CC2)c2cc([N+](=O)[O-])ccc21",
    "value type": "IC50 at 48 h",
    "qualifier": "=",
    "numeric value": 88.4
  },
  {
    "smiles entry": "C#CCn1cc(C=O)c2cc([N+](=O)[O-])ccc21",
    "value type": "IC50 at 48 h",
    "qualifier": ">",
    "numeric value": 100
  },
  {
    "smiles entry": "C#CCn1cc(/C=N\\N=C\\c2cccnc2)c2cc([N+](=O)[O-])ccc21",
    "value type": "IC50 at 48 h",
    "qualifier": ">",
    "numeric value": 100
  },
  {
    "smiles entry": "C#CCn1cc(/C=N\\N=C/C)c2cc([N+](=O)[O-])ccc21",
    "value type": "IC50 at 48 h",
    "qualifier": "=",
    "numeric value": 89
  },
  {
    "smiles entry": "C#CCn1cc(\\C=N/N=C/C(C)=C\\C)c2cc([N+](=O)[O-])ccc21",
    "value type": "IC50 at 48 h",
    "qualifier": "=",
    "numeric value": 84.2
  },
  {
    "smiles entry": "C#CCn1cc(/C=N\\N=C/CC)c2cc([N+](=O)[O-])ccc21",
    "value type": "IC50 at 48 h",
    "qualifier": ">",
    "numeric value": 100
  }
]

---

run description: Selectivity index, ratio of IC50 for human THP-1 cells to IC50 for Trypanosoma cruzi Tulahuen C4 strain
Assay type: toxicity, cell-based
setup conditions: read-out: Ratio IC50
# selectivity ratio listing for each entry below
value type: selectivity ratio

[
  {
    "smiles entry": "C#CCn1cc(/C=N\\N=C\\c2ccc([N+](=O)[O-])s2)c2cc([N+](=O)[O-])ccc21",
    "numeric value": 121
  },
  {
    "smiles entry": "C#CCn1cc(/C=N\\N=C\\c2ccc([N+](=O)[O-])o2)c2cc([N+](=O)[O-])ccc21",
    "numeric value": 55
  }
]

---

run description: Selectivity index, ratio of IC50 for human THP-1 cells to IC50 for Leishmania major IR-173 (MHO-M/IR/-173) promastigote
Format: toxicity, cell-based
setup conditions: read-out: Ratio IC50
value type: selectivity ratio

[
  {
    "smiles entry": "C#CCn1cc(\\C=N/N=C/C=C/c2ccccc2)c2cc([N+](=O)[O-])ccc21",
    "value type": "selectivity ratio",
    "numeric value": 4
  },
  {
    "smiles entry": "C#CCn1cc(/C=N\\N=C\\c2ccc([N+](=O)[O-])o2)c2cc([N+](=O)[O-])ccc21",
    "value type": "selectivity ratio",
    "numeric value": 829
  },
  {
    "smiles entry": "C#CCn1cc(/C=N\\N=C\\c2ccco2)c2cc([N+](=O)[O-])ccc21",
    "value type": "selectivity ratio",
    "numeric value": 20
  }
]

---

IC50 at 72 h: recorded values
run description: Cytotoxicity against human […]-differentiated THP-1 cells incubated for 72 hrs by resazurin dye based assay
Type: toxicity, cell-based
value type: IC50 at 72 h (µM)

[
  {
    "smiles entry": "C#CCn1cc(/C=N\\N=C\\C2CCCCC2)c2cc([N+](=O)[O-])ccc21",
    "value type": "IC50 at 72 h",
    "qualifier": "=",
    "numeric value": 52.9
  },
  {
    "smiles entry": "C#CCn1cc(/C=N\\N=C/CCC)c2cc([N+](=O)[O-])ccc21",
    "value type": "IC50 at 72 h",
    "qualifier": "=",
    "numeric value": 43.9
  },
  {
    "smiles entry": "C#CCn1cc(C=O)c2cc([N+](=O)[O-])ccc21",
    "value type": "IC50 at 72 h",
    "qualifier": "=",
    "numeric value": 77
  },
  {
    "smiles entry": "C#CCn1cc(/C=N\\N=C\\c2ccc([N+](=O)[O-])o2)c2cc([N+](=O)[O-])ccc21",
    "value type": "IC50 at 72 h",
    "qualifier": "=",
    "numeric value": 66.3
  },
  {
    "smiles entry": "C#CCn1cc(/C=N\\N=C/CC)c2cc([N+](=O)[O-])ccc21",
    "value type": "IC50 at 72 h",
    "qualifier": ">",
    "numeric value": 100
  }
]

The values you see were collected from ChEMBL document CHEMBL6083269.
